The measurements presented in this section are drawn from patent US20130109693A1.

Each record here notes measured melting point.

Examples from the recorded data:
COCOc1ccc(-c2ncc3ccc(-c4csc(CN5CCOCC5)c4)nc3n2)cc1 [Compound 76]    > 268 °C
Oc1ccc(-c2ncc3ncc(-c4ccsc4)cc3n2)cc1 [Compound 37]    248 to 250 °C
COc1ccc(Nc2cnc3c(NCc4ccccc4)nc(NCCO)nc3c2)cc1 [Compound 83]    126 to 127 °C
COc1ccc(Nc2cnc3cnc(-c4ccc(O)cc4)nc3c2)cc1 [Compound 51]    134 to 136 °C
CS(=O)(=O)c1ccc(-c2cnc3cnc(-c4ccc(O)cc4)nc3c2)cc1 [Compound 26]    306 to 307 °C

Query :: Recall and state the measured melting point for Oc1ccc(-c2ncc3ncc(-c4ccco4)cc3n2)cc1 [Compound 35] .
Result :: 261 to 263 °C

Query :: Recall and state the measured melting point for O=Cc1ccc(-c2cnc3cnc(-c4ccc(O)cc4)nc3c2)cc1 [Compound 42] .
Result :: > 268 °C

Query :: Recall and state the measured melting point for COc1ccc(-c2cnc3cnc(-c4ccc(O)cc4)nc3c2)cn1 [Compound 32] .
Result :: 246 to 248 °C

Query :: Recall and state the measured melting point for Oc1ccc(Nc2ncc3ncc(Cl)cc3n2)cc1 [Compound 59] .
Result :: 232 to 234 °C
